biological target: hOX1R (Homo sapiens); assay: FLIPR Ca2+ flux assay, orexin-1 receptor; format: cell-based; settings: CHO cells expressing the receptor; agonist 70 pM Ala-6,12 orexin-A
pIC50: −log10 of the molar value.

>  <molecule>
Cc1oc(N2CC3CN(C(=O)c4cccnc4-c4ccccc4)CC3C2)nc1C(C)(C)O (centres unmarked)

>  <pIC50>
< 5.00

$$$$
>  <molecule>
CCOc1ncccc1C(=O)N1CC2CN(c3nc(C(C)(C)O)c(C)o3)CC2C1 (centres unmarked)

>  <pIC50>
< 5.00

$$$$
>  <molecule>
Cc1oc(N2CC3CN(C(=O)c4ccc(F)cc4-n4nccn4)CC3C2)nc1C(C)(C)O (centres unmarked)

>  <pIC50>
5.51

$$$$
>  <molecule>
Cc1oc(N2CC3CN(C(=O)c4ccccc4-n4nccn4)CC3C2)nc1C(C)(C)O (centres unmarked)

>  <pIC50>
5.16

$$$$
>  <molecule>
Cc1oc(N2CC3CN(C(=O)c4ccccc4OCC(F)(F)F)CC3C2)nc1C(C)(C)O (centres unmarked)

>  <pIC50>
< 5.00

$$$$
>  <molecule>
Cc1oc(N2CC3CN(C(=O)c4ccccc4N4CCCC4)CC3C2)nc1C(C)(C)O (centres unmarked)

>  <pIC50>
< 5.00

$$$$
>  <molecule>
Cc1oc(N2CC3CN(C(=O)c4nccnc4-n4cccn4)CC3C2)nc1C(C)(C)O (centres unmarked)

>  <pIC50>
< 5.00

$$$$
>  <molecule>
Cc1oc(N2CC3CN(C(=O)c4ccccc4-n4ncnn4)CC3C2)nc1C(C)(C)O (centres unmarked)

>  <pIC50>
< 5.00

$$$$

---

molecular target: hOX1R (Homo sapiens, UniProt O43613); experiment: FLIPR Ca2+ flux assay, orexin-1 receptor; conditions: CHO cells expressing the receptor; agonist 70 pM Ala-6,12 orexin-A
pIC50: −log10 of the molar value.
In this section we review reported pIC50 values for a set of molecules.

>  <molecule>
Cc1oc(N2CC3CN(C(=O)c4cccnc4-n4cccn4)CC3C2)nc1C(C)(C)O (stereo not drawn)

>  <pIC50>
5.01

$$$$
>  <molecule>
Cc1oc(N2CC3CN(C(=O)c4ccccc4OC(F)(F)F)CC3C2)nc1C(C)(C)O (stereo not drawn)

>  <pIC50>
< 5.00

$$$$
>  <molecule>
Cc1oc(N2CC3CN(C(=O)c4cccnc4OC(C)C)CC3C2)nc1C(C)(C)O (stereo not drawn)

>  <pIC50>
< 5.00

$$$$
>  <molecule>
Cc1oc(N2CC3CN(C(=O)c4cccnc4CC(F)(F)F)CC3C2)nc1C(C)(C)O (stereo not drawn)

>  <pIC50>
< 5.00

$$$$
>  <molecule>
Cc1oc(N2CC3CN(C(=O)c4cccnc4OCC(F)F)CC3C2)nc1C(C)(C)O (stereo not drawn)

>  <pIC50>
< 5.00

$$$$
>  <molecule>
Cc1oc(N2CC3CN(C(=O)c4ccccc4C4CCC4)CC3C2)nc1C(C)(C)O (stereo not drawn)

>  <pIC50>
5.28

$$$$
>  <molecule>
Cc1oc(N2CC3CN(C(=O)c4ccccc4C4CC4)CC3C2)nc1C(C)(C)O (stereo not drawn)

>  <pIC50>
< 5.00

$$$$
>  <molecule>
Cc1oc(N2CC3CN(C(=O)c4ccccc4C4CC4(F)F)CC3C2)nc1C(C)(C)O (stereo not drawn)

>  <pIC50>
< 5.00

$$$$
>  <molecule>
Cc1oc(N2CC3CN(C(=O)c4ccccc4OC(F)F)CC3C2)nc1C(C)(C)O (stereo not drawn)

>  <pIC50>
< 5.00

$$$$
>  <molecule>
Cc1oc(N2CC3CN(C(=O)c4cccnc4OCC(F)(F)F)CC3C2)nc1C(C)(C)O (stereo not drawn)

>  <pIC50>
< 5.00

$$$$
>  <molecule>
Cc1oc(N2CC3CN(C(=O)c4ccccc4-n4cccn4)CC3C2)nc1C(C)(C)O (stereo not drawn)

>  <pIC50>
< 5.00

$$$$
>  <molecule>
Cc1oc(N2CC3CN(C(=O)c4ccccc4CC(F)(F)F)CC3C2)nc1C(C)(C)O (stereo not drawn)

>  <pIC50>
< 5.00

$$$$

---

Target: human orexin-2 receptor (hOX2R) (Homo sapiens (Human))
Sequence (O43614 whole entry): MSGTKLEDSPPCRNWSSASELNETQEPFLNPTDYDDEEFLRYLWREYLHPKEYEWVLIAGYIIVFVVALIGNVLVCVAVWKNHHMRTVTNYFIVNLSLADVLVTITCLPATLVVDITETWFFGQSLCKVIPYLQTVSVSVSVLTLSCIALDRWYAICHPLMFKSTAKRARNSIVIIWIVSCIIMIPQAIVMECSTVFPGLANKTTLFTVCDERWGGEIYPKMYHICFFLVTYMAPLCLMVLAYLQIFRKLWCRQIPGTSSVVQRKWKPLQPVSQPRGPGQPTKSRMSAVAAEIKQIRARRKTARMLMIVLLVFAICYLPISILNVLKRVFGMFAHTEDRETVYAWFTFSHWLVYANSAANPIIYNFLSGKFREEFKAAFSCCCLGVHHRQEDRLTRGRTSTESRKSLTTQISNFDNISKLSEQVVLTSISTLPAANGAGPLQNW
Assay: FLIPR Ca2+ flux assay, orexin-2 receptor
Type: cell-based
Conditions: CHO cells expressing the receptor; agonist 70 pM Ala-6,12 orexin-A
Method: The utility of the compounds in accordance with the present invention as orexin receptor OX1R and/or OX2R antagonists may be readily determined without undue experimentation by methodology well known in the art, including the “FLIPR Ca^2+ Flux Assay” (Okumura et al., Biochem. Biophys. Res. Comm. 280:976-981, 2001). In a typical experiment the OX1 and OX2 receptor antagonistic activity of the compounds of the present invention was determined in accordance with the following experimental method. […]
assay_readout: log10 IC50 (log10 of the value in nM)

>  <compound>
Cc1oc(N2CC3CN(C(=O)c4ccccc4C4CC4(F)F)CC3C2)nc1C(C)(C)O (stereo not drawn) [Example 24]

>  <assay_target>
human orexin-2 receptor (hOX2R) (Homo sapiens (Human))

>  <log10 IC50>
1.34

$$$$
>  <compound>
Cc1oc(N2CC3CN(C(=O)c4ccccc4-n4ncnn4)CC3C2)nc1C(C)(C)O (stereo not drawn) [Example 15]

>  <assay_target>
human orexin-2 receptor (hOX2R) (Homo sapiens (Human))

>  <log10 IC50>
1.81

$$$$
>  <compound>
Cc1oc(N2CC3CN(C(=O)c4ncccc4-c4ccccc4)CC3C2)nc1C(C)(C)O (stereo not drawn) [Example 5]

>  <assay_target>
human orexin-2 receptor (hOX2R) (Homo sapiens (Human))

>  <log10 IC50>
2.77

$$$$
>  <compound>
Cc1oc(N2CC3CN(C(=O)c4cccnc4OC(C)C)CC3C2)nc1C(C)(C)O (stereo not drawn) [Example 8]

>  <assay_target>
human orexin-2 receptor (hOX2R) (Homo sapiens (Human))

>  <log10 IC50>
2.10

$$$$
>  <compound>
Cc1oc(N2CC3CN(C(=O)c4cccnc4-c4ccccc4)CC3C2)nc1C(C)(C)O (stereo not drawn) [Example 19]

>  <assay_target>
human orexin-2 receptor (hOX2R) (Homo sapiens (Human))

>  <log10 IC50>
1.78

$$$$
>  <compound>
Cc1oc(N2CC3CN(C(=O)c4ncccc4-n4nccn4)CC3C2)nc1C(C)(C)O (stereo not drawn) [Example 17]

>  <assay_target>
human orexin-2 receptor (hOX2R) (Homo sapiens (Human))

>  <log10 IC50>
1.92

$$$$
>  <compound>
Cc1oc(N2CC3CN(C(=O)c4ccccc4OCC(F)(F)F)CC3C2)nc1C(C)(C)O (stereo not drawn) [Example 7]

>  <assay_target>
human orexin-2 receptor (hOX2R) (Homo sapiens (Human))

>  <log10 IC50>
2.22

$$$$
>  <compound>
CCOc1ncccc1C(=O)N1CC2CN(c3nc(C(C)(C)O)c(C)o3)CC2C1 (stereo not drawn) [Example 2]

>  <assay_target>
human orexin-2 receptor (hOX2R) (Homo sapiens (Human))

>  <log10 IC50>
2.74

$$$$
>  <compound>
Cc1oc(N2CC3CN(C(=O)c4cccnc4-n4cccn4)CC3C2)nc1C(C)(C)O (stereo not drawn) [Example 18]

>  <assay_target>
human orexin-2 receptor (hOX2R) (Homo sapiens (Human))

>  <log10 IC50>
1.54

$$$$
>  <compound>
Cc1oc(N2CC3CN(C(=O)c4ccccc4CC(F)(F)F)CC3C2)nc1C(C)(C)O (stereo not drawn) [Example 23]

>  <assay_target>
human orexin-2 receptor (hOX2R) (Homo sapiens (Human))

>  <log10 IC50>
2.36

$$$$
>  <compound>
Cc1oc(N2CC3CN(C(=O)c4ccccc4OC(F)F)CC3C2)nc1C(C)(C)O (stereo not drawn) [Example 22]

>  <assay_target>
human orexin-2 receptor (hOX2R) (Homo sapiens (Human))

>  <log10 IC50>
2.00

$$$$
>  <compound>
Cc1oc(N2CC3CN(C(=O)c4ccccc4N4CCCC4)CC3C2)nc1C(C)(C)O (stereo not drawn) [Example 13]

>  <assay_target>
human orexin-2 receptor (hOX2R) (Homo sapiens (Human))

>  <log10 IC50>
1.69

$$$$
>  <compound>
Cc1oc(N2CC3CN(C(=O)c4nccnc4N4CCCC4)CC3C2)nc1C(C)(C)O (stereo not drawn) [Example 20]

>  <assay_target>
human orexin-2 receptor (hOX2R) (Homo sapiens (Human))

>  <log10 IC50>
2.40

$$$$
>  <compound>
Cc1oc(N2CC3CN(C(=O)c4cccnc4OCC(F)F)CC3C2)nc1C(C)(C)O (stereo not drawn) [Example 9]

>  <assay_target>
human orexin-2 receptor (hOX2R) (Homo sapiens (Human))

>  <log10 IC50>
2.49

$$$$
>  <compound>
Cc1oc(N2CC3CN(C(=O)c4cccnc4CC(F)(F)F)CC3C2)nc1C(C)(C)O (stereo not drawn) [Example 10]

>  <assay_target>
human orexin-2 receptor (hOX2R) (Homo sapiens (Human))

>  <log10 IC50>
1.66

$$$$
>  <compound>
Cc1oc(N2CC3CN(C(=O)c4cccnc4OCC(F)(F)F)CC3C2)nc1C(C)(C)O (stereo not drawn) [Example 3]

>  <assay_target>
human orexin-2 receptor (hOX2R) (Homo sapiens (Human))

>  <log10 IC50>
2.03

$$$$
>  <compound>
Cc1oc(N2CC3CN(C(=O)c4ccccc4-n4cccn4)CC3C2)nc1C(C)(C)O (stereo not drawn) [Example 14]

>  <assay_target>
human orexin-2 receptor (hOX2R) (Homo sapiens (Human))

>  <log10 IC50>
1.86

$$$$
>  <compound>
Cc1oc(N2CC3CN(C(=O)c4nccnc4-n4cccn4)CC3C2)nc1C(C)(C)O (stereo not drawn) [Example 21]

>  <assay_target>
human orexin-2 receptor (hOX2R) (Homo sapiens (Human))

>  <log10 IC50>
2.05

$$$$
>  <compound>
Cc1oc(N2CC3CN(C(=O)c4ccccc4-n4nccn4)CC3C2)nc1C(C)(C)O (stereo not drawn) [Example 1]

>  <assay_target>
human orexin-2 receptor (hOX2R) (Homo sapiens (Human))

>  <log10 IC50>
1.43

$$$$
>  <compound>
Cc1oc(N2CC3CN(C(=O)c4ccc(F)cc4-n4nccn4)CC3C2)nc1C(C)(C)O (stereo not drawn) [Example 16]

>  <assay_target>
human orexin-2 receptor (hOX2R) (Homo sapiens (Human))

>  <log10 IC50>
1.51

$$$$
>  <compound>
CCCc1ccccc1C(=O)N1CC2CN(c3nc(C(C)(C)O)c(C)o3)CC2C1 (stereo not drawn) [Example 6]

>  <assay_target>
human orexin-2 receptor (hOX2R) (Homo sapiens (Human))

>  <log10 IC50>
1.51

$$$$
>  <compound>
Cc1oc(N2CC3CN(C(=O)c4ccccc4C4CC4)CC3C2)nc1C(C)(C)O (stereo not drawn) [Example 11]

>  <assay_target>
human orexin-2 receptor (hOX2R) (Homo sapiens (Human))

>  <log10 IC50>
1.94

$$$$
>  <compound>
Cc1oc(N2CC3CN(C(=O)c4ccccc4OC(F)(F)F)CC3C2)nc1C(C)(C)O (stereo not drawn) [Example 4]

>  <assay_target>
human orexin-2 receptor (hOX2R) (Homo sapiens (Human))

>  <log10 IC50>
2.78

$$$$
>  <compound>
Cc1oc(N2CC3CN(C(=O)c4ccccc4C4CCC4)CC3C2)nc1C(C)(C)O (stereo not drawn) [Example 12]

>  <assay_target>
human orexin-2 receptor (hOX2R) (Homo sapiens (Human))

>  <log10 IC50>
1.36

$$$$
